- System: hTERT-HMEC;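 also: secreted proteins added to cultured cells, EdU pulse at the end, nuclei found by Hoechst imaging, EdU status from nuclear versus surrounding ring intensity ratio, PBS as neutral control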
- experiment description: percentage of EdU-negative (G0-arrested) nuclei per well, 72 h; higher = more G0 arrest
- experimental setup: protein concentration 0.225 µM; reference: sequence is the full UniProt precursor, the tested protein was the secreted form or ectodomain
Exercise: for every item that follows, state its recorded percentage of EdU-negative.
One number for each entry, in %.

>  <sequence code>
MDPKGLLSLTFVLFLSLAFGASYGTGGRMMNCPKILRQLGSKVLLPLTYERINKSMNKSIHIVVTMAKSLENSVENKIVSLDPSEAGPPRYLGDRYKFYLENLTLGIRESRKEDEGWYLMTLEKNVSVQRFCLQLRLYEQVSTPEIKVLNKTQENGTCTLILGCTVEKGDHVAYSWSEKAGTHPLNPANSSHLLSLTLGPQHADNIYICTVSNPISNNSQTFSPWPGCRTDPSETKPWAVYAGLLGGVIMILIMVVILQLRRRGKTNHYQTTVEKKSLTIYAQVQKPGPLQKKLDSFPAQDPCTTIYVAATEPVPESVQETNSITVYASVTLPES

>  <scale unit>
%

>  <percentage of EdU-negative>
5.04

$$$$
>  <sequence code>
MTVLAPAWSPTTYLLLLLLLSSGLSGTQDCSFQHSPISSDFAVKIRELSDYLLQDYPVTVASNLQDEELCGGLWRLVLAQRWMERLKTVAGSKMQGLLERVNTEIHFVTKCAFQPPPSCLRFVQTNISRLLQETSEQLVALKPWITRQNFSRCLELQCQPDSSTLPPPWSPRPLEATAPTAPQPPLLLLLLLPVGLLLLAAAWCLHWQRTRRRTPRPGEQVPPVPSPQDLLLVEH

>  <scale unit>
%

>  <percentage of EdU-negative>
5.47

$$$$
>  <sequence code>
MESSRVRLLPLLGAALLLMLPLLGTRAQEDAELQPRALDIYSAVDDASHEKELIEALQEVLKKLKSKRVPIYEKKYGQVPMCDAGEQCAVRKGARIGKLCDCPRGTSCNSFLLKCL

>  <scale unit>
%

>  <percentage of EdU-negative>
5.36

$$$$
>  <sequence code>
MLSSVVFWGLIALIGTSRGSYPFSHSMKPHLHPRLYHGCYGDIMTMKTSGATCDANSVMNCGIRGSEMFAEMDLRAIKPYQTLIKEVGQRHCVDPAVIAAIISRESHGGSVLQDGWDHRGLKFGLMQLDKQTYHPVGAWDSKEHLSQATGILTERIKAIQKKFPTWSVAQHLKGGLSAFKSGIEAIATPSDIDNDFVNDIIARAKFYKRQSF [Q86SG7]

>  <scale unit>
%

>  <percentage of EdU-negative>
5.09

$$$$
>  <sequence code>
MCVTYHNGTGYCKCPEGFLGEYCQHRDPCEKNRCQNGGTCVAQAMLGKATCRCASGFTGEDCQYSTSHPCFVSRPCLNGGTCHMLSRDTYECTCQVGFTGKECQWTDACLSHPCANGSTCTTVANQFSCKCLTGFTGQKCETDVNECDIPGHCQHGGTCLNLPGSYQCQCLQGFTGQYCDSLYVPCAPSPCVNGGTCRQTGDFTFECNCLPETVRRGTELWERDREVWNGKEHDEN [Q7Z3S9]

>  <scale unit>
%

>  <percentage of EdU-negative>
5.36

$$$$

I need percentage of EdU-negative for every entry listed below, if you could help.
1. MQRLRWLRDWKSSGRGLTAAKEPGARSSPLQAMRILQLILLALATGLVGGETRIIKGFECKPHSQPWQAALFEKTRLLCGATLIAPRWLLTAAHCLKPRYIVHLGQHNLQKEEGCEQTRTATESFPHPGFNNSLPNKDHRNDIMLVKMASPVSITWAVRPLTLSSRCVTAGTSCLISGWGSTSSPQLRLPHTLRCANITIIEHQKCENAYPGNITDTMVCASVQEGGKDSCQGDSGGPLVCNQSLQGIISWGQDPCAITRKPGVYTKVCKYVDWIQETMKNN [Q9UBX7]
2. MAHRPPSPALASVLLALLLSGAARAAEIVGGHEAQPHSRPYMASLQMRGNPGSHFCGGTLIHPSFVLTAAHCLRDIPQRLVNVVLGAHNVRTQEPTQQHFSVAQVFLNNYDAENKLNDVLLIQLSSPANLSASVATVQLPQQDQPVPHGTQCLAMGWGRVGAHDPPAQVLQELNVTVVTFFCRPHNICTFVPRRKAGICFGDSGGPLICDGIIQGIDSFVIWGCATRLFPDFFTRVALYVDWIRSTLRRVEAKGRP
3. MPGAAEALPTVTVTLVAGAVPPASGALTAHCIGGFWREVGVASDQSLVLTAPKRVEGLFLTLSGSNLTVKVAYNSSGSCEIEKIVGSEIDSTGKFAFPGHREIHVLDTDYEGYAILRVSLMWRGRNFRVLKYFTRSLEDKDRLGFWKFRELTADTGLYLAARPGRCAELLKEELI [Q6JVE9]
4. MVAGSDAGRALGVLSVVCLLHCFGFISCFSQQIYGVVYGNVTFHVPSNVPLKEVLWKKQKDKVAELENSEFRAFSSFKNRVYLDTVSGSLTIYNLTSSDEDEYEMESPNITDTMKFFLYVLESLPSPTLTCALTNGSIEVQCMIPEHYNSHRGLIMYSWDCPMEQCKRNSTSIYFKMENDLPQKIQCTLSNPLFNTTSSIILTTCIPSSGHSRHRYALIPIPLAVITTCIVLYMNGILKCDRKPDRTNSN
5. MRAAGTLLAFCCLVLSTTGGPSPDTCSQDLNSRVKPGFPKTIKTNDPGVLQAARYSVEKFNNCTNDMFLFKESRITRALVQIVKGLKYMLEVEIGRTTCKKNQHLRLDDCDFQTNHTLKQTLSCYSEVWVVPWLQHFEVPVLRCH
6. MSRREGSLEDPQTDSSVSLLPHLEAKIRQTHSLAHLLTKYAEQLLQEYVQLQGDPFGLPSFSPPRLPVAGLSAPAPSHAGLPVHERLRLDAAALAALPPLLDAVCRRQAELNPRAPRLLRRLEDAARQARALGAAVEALLAALGAANRGPRAEPPAATASAASATGVFPAKVLGLRVCGLYREWLSRTEGDLGQLLPGGSA
7. MDRRSRAQQWRRARHNYNDLCPPIGRRAATALLWLSCSIALLRALATSNARAQQRAAAQQRRSFLNAHHRSGAQVFPESPESESDHEHEEADLELSLPECLEYEEEFDYETESETESEIESETDFETEPETAPTTEPETEPEDDRGPVVPKHSTFGQSLTQRLHALKLRSPDASPSRAPPSTQEPQSPREGEELKPEDKDPRDPEESKEPKEEKQRRRCKPKKPTRRDASPESPSKKGPIPIRRH

a:
[6.15, 4.49, 9.51, 5.59, 4.86, 6.17, 5.43]
